- Tested on: HPB-ALL
- assay_details: selective drug sensitivity score (sDSS, relative to normal bone marrow) (sDSS (score)); higher = more potent and effective on the cell line relative to normal bone marrow cells;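 also: ALL cell lines in 384-well plates, five doses spanning 10,000-fold, each plate scaled between vehicle and 100 µmol/L benzalkonium chloride controls, sDSS an adapted area-under-curve metric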
- condition_context: 72 h
Listed below: selective drug sensitivity score values for each entry.
The answer should be a number; do not append a unit.

Look over these answered cases.
[
  {
    "compound": "OC[C@H]1O[C@@H](n2cnc3c2N=CNC[C@H]3O)C[C@@H]1O [Pentostatin] (top concentration 10000 nM)",
    "selective drug sensitivity score": -0.44
  },
  {
    "compound": "CN(C)C(=O)c1cc2cnc(Nc3ccc(N4CCNCC4)cn3)nc2n1C1CCCC1 [Ribociclib] (top concentration 10000 nM)",
    "selective drug sensitivity score": 2.78
  },
  {
    "compound": "N#Cc1ccc2[nH]c(O)c(-c3ccc(CN4CCOCC4)cn3)c2c1 [AZD-1080] (top concentration 10000 nM)",
    "selective drug sensitivity score": -0.02
  },
  {
    "compound": "NC(=O)Nc1cc(-c2cccc(F)c2)sc1C(=O)N[C@H]1CCCNC1 [AZD7762] (top concentration 1000 nM)",
    "selective drug sensitivity score": -1.5
  },
  {
    "compound": "Cc1cc(Nc2cc(N3CCN(C)CC3)nc(Sc3ccc(NC(=O)C4CC4)cc3)n2)n[nH]1 [Tozasertib] (top concentration 10000 nM)",
    "selective drug sensitivity score": 7.46
  },
  {
    "compound": "Cc1ccc(NC(=O)c2ccc(CN3CCN(C)CC3)cc2)cc1Nc1nccc(-c2cccnc2)n1 [Imatinib] (top concentration 10000 nM)",
    "selective drug sensitivity score": 1.06
  },
  {
    "compound": "C[C@]12C=CC(=O)C=C1CC[C@@H]1[C@@H]2[C@@H](O)C[C@@]2(C)[C@H]1CC[C@]2(O)C(=O)CO [Prednisolone] (top concentration 10000 nM)",
    "selective drug sensitivity score": 2.2
  },
  {
    "compound": "CN1CCN(c2ccc(C(=O)Nc3n[nH]c4ccc(Cc5cc(F)cc(F)c5)cc34)c(NC3CCOCC3)c2)CC1 [Entrectinib] (top concentration 1000 nM)",
    "selective drug sensitivity score": -1.2
  },
  {
    "compound": "CS(=O)(=O)c1ccc(-c2cnc(N)c(C(=O)Nc3ccccc3)n2)cc1 [VE-821] (top concentration 10000 nM)",
    "selective drug sensitivity score": 5.04
  },
  {
    "compound": "COc1ccc(-c2nc(N3CCOCC3)c3sc(CN(C)c4ncc(C(=O)NO)cn4)cc3n2)cn1 [Fimepinostat (CUDC-907)] (top concentration 10000 nM)",
    "selective drug sensitivity score": -4.02
  }
]

Data request, read-out selective drug sensitivity score, for CN(C)C(=N)NC(=N)N [Metformin] (top concentration 100000 nM)
-0.02

Now this one: C[C@@H](C(=O)O)c1ccc(-c2ccccc2)c(F)c1 [Tarenflurbil] (top concentration 10000 nM)
-0.16

###

- System: COG-LL-319h
- assay_details: selective drug sensitivity score (sDSS, relative to normal bone marrow) (sDSS (score)); higher = more potent and effective on the cell line relative to normal bone marrow cells
- condition_context: 72 h
Listed below: selective drug sensitivity score values for each entry.
The answer should be a number; do not append a unit.

Look over these answered cases.
[
  {
    "molecule": "CC(C)NC[C@@H](C(=O)N1CCN(c2ncnc3c2[C@H](C)C[C@H]3O)CC1)c1ccc(Cl)cc1 [Ipatasertib] (top concentration 10000 nM)",
    "system_under_test": "COG-LL-319h",
    "selective drug sensitivity score": 2.4
  },
  {
    "molecule": "CC(=O)N(O)CCCCCNC(=O)CCC(=O)N(O)CCCCCNC(=O)CCC(=O)N(O)CCCCCN [Deferoxamine] (top concentration 10000 nM)",
    "system_under_test": "COG-LL-319h",
    "selective drug sensitivity score": 7.86
  },
  {
    "molecule": "CC(=O)Nc1ccc(C(=O)Nc2ccccc2N)cc1 [Tacedinaline] (top concentration 1000 nM)",
    "system_under_test": "COG-LL-319h",
    "selective drug sensitivity score": 1.98
  },
  {
    "molecule": "COC(=O)C[C@](O)(CCCC(C)(C)O)C(=O)O[C@@H]1C(OC)=C[C@]23CCCN2CCc2cc4c(cc2[C@H]13)OCO4 [Omacetaxine] (top concentration 10000 nM)",
    "system_under_test": "COG-LL-319h",
    "selective drug sensitivity score": 4.12
  }
]

Data request, read-out selective drug sensitivity score, for Cn1c(=O)n(-c2ccc(C(C)(C)C#N)cc2)c2c3cc(-c4cnc5ccccc5c4)ccc3ncc21 [Dactolisib] (top concentration 1000 nM)
-7.44

Now this one: COCC1(CO)C(=O)C2CCN1CC2 (stereo unspecified) [APR-246] (top concentration 10000 nM)
7.44

###

- Test system: MHH-CALL-4
- assay_details: selective drug sensitivity score (sDSS, relative to normal bone marrow) (sDSS (score)); higher = more potent and effective on the cell line relative to normal bone marrow cells
- condition_context: 72 h
Each entry belongs to exactly one class, chosen by where its selective drug sensitivity score falls: band A (below 0.04), band B (0.04 to below 2), band C (2 or more)

Worked examples, 4 compounds total:
[
  {
    "compound": "Cc1cnc(-c2ccccc2C(C)C)nc1NCc1ccc(-n2ccnn2)cc1 [ML323] (top concentration 10000 nM)",
    "system_under_test": "MHH-CALL-4",
    "label_value": "band A"
  },
  {
    "compound": "Nc1nc(Cl)nc2c1ncn2[C@H]1C[C@H](O)[C@@H](CO)O1 [Cladribine] (top concentration 1000 nM)",
    "system_under_test": "MHH-CALL-4",
    "label_value": "band C"
  },
  {
    "compound": "COc1cc2c(NC3CCN(C(C)C)CC3)nc(N3CCC(F)(F)CC3)nc2cc1OCCCN1CCCC1 [UNC0642] (top concentration 10000 nM)",
    "system_under_test": "MHH-CALL-4",
    "label_value": "band B"
  },
  {
    "compound": "CNC(=O)c1cc(COc2nnc(Nc3ccc(Cl)cc3)c3ccoc23)ccn1 [Telatinib] (top concentration 10000 nM)",
    "system_under_test": "MHH-CALL-4",
    "label_value": "band A"
  }
]

GET /class?item= COc1cc2nccc(Oc3ccc(NC(=O)NC4CC4)c(Cl)c3)c2cc1C(N)=O [Lenvatinib] (top concentration 2500 nM)
band A

Now this one: CNS(=O)(=O)Nc1nccc(Cc2c(C)c3ccc(Oc4ncccn4)cc3oc2=O)c1F (top concentration 1000 nM)
band B

###

Listed below: selective drug sensitivity score values for each entry.
- Tested on: PF-382
- assay_details: selective drug sensitivity score (sDSS, relative to normal bone marrow) (sDSS (score)); higher = more potent and effective on the cell line relative to normal bone marrow cells
- condition_context: 72 h
The answer should be a number; do not append a unit.

[
  {
    "molecule": "CO[C@@H](C)Cn1c(=O)n(C)c2cnc3ccc(-c4cncc(C(C)(C)O)c4)cc3c21 (top concentration 2500 nM)",
    "selective drug sensitivity score": 5.88
  },
  {
    "molecule": "C=CCn1c(=O)c2cnc(Nc3ccc(N4CCN(C)CC4)cc3)nc2n1-c1cccc(C(C)(C)O)n1 [AZD1775] (top concentration 10000 nM)",
    "selective drug sensitivity score": 12.4
  }
]

Data request, read-out selective drug sensitivity score, for Cc1cc(Nc2cc(N3CCN(C)CC3)nc(Sc3ccc(NC(=O)C4CC4)cc3)n2)n[nH]1 [Tozasertib] (top concentration 10000 nM)
7.06

Now this one: C=CC(=O)Nc1cc2c(Nc3ccc(F)c(Cl)c3)ncnc2cc1OCCCN1CCOCC1 [Canertinib] (top concentration 10000 nM)
-0.54

Now this one: OC[C@H]1O[C@@H](n2cnc3c2N=CNC[C@H]3O)C[C@@H]1O [Pentostatin] (top concentration 10000 nM)
-0.44

Now this one: CCCc1cc(C)[nH]c(=O)c1CNC(=O)c1cc(-c2ccnc(N3CCN(C)CC3)c2)cc2c1cnn2C(C)C [GSK343] (top concentration 1000 nM)
0

Now this one: c1cc(CN2CCCNCCNCCCNCC2)ccc1CN1CCCNCCNCCCNCC1 [Plerixafor] (top concentration 10000 nM)
0

Now this one: O=C(/C=C\n1cnc(-c2cc(C(F)(F)F)cc(C(F)(F)F)c2)n1)NNc1ccccn1 [Verdinexor] (top concentration 1000 nM)
6.54

Now this one: CN(C)C(=N)NC(=N)N [Metformin] (top concentration 100000 nM)
-0.02

Now this one: COc1c(OCCCN2CCOCC2)ccc2c1N=C(NC(=O)c1cnc(N)nc1)N1CCN=C21 [Copanlisib] (top concentration 1000 nM)
2.58

Now this one: CN(C)c1cc2c(cc1Sc1nc3c(N)nccc3n1CCNCC(C)(C)C)OCO2 [CUDC-305] (top concentration 10000 nM)
3.82

Now this one: Cc1ccc(NC(=O)c2ccc(CN3CC[C@H](N(C)C)C3)c(C(F)(F)F)c2)cc1Nc1nccc(-c2cncnc2)n1 [Bafetinib] (top concentration 1000 nM)
0

Now this one: Nc1nc2[nH]cnc2c(=S)[nH]1 [Thioguanine] (top concentration 10000 nM)
12
